# Test system: genotype 4a (ED43) stable HCV replicon in Huh-7-derived cells
# ASSAY_TEXT: Stable subgenomic HCV replicon EC50, genotype 4a (Renilla luciferase)
# Type: cell-based, hepatitis C virus
# SETUP_CONDITIONS: Hepatitis C virus, 72 h, read-out: EC50 4A RLUC
Kindly state pEC50 for each of the entries shown.
Answers are plain numbers, as −log10 of the molar value.

// known answers, use as guide
{"columns": ["COMPOUND", "READOUT_KIND", "NUMBER"],
 "data": [
  ["CC[C@@H]1[C@@H]2CN(C(=O)[C@H](C(C)(C)C)NC(=O)O[C@]3(C)CCC[C@H]3CCCCCc3nc4ccc(OC)cc4nc3O2)[C@@H]1C(=O)N[C@]1(C(=O)NS(=O)(=O)C2CC2)C[C@H]1C(F)F [Example 40]", "pEC50", 7.74],
  ["CC[C@@H]1[C@@H]2CN(C(=O)[C@H](C(C)(C)C)NC(=O)O[C@@H]3CCC[C@H]3CCCCCc3nc4ccc(OC)cc4nc3O2)[C@@H]1C(=O)N[C@]1(C(=O)NS(=O)(=O)C2CC2)C[C@H]1C(F)F [Example 5]", "pEC50", 8.16],
  ["CC[C@@H]1[C@@H]2CN(C(=O)[C@H](C(C)(C)C)NC(=O)O[C@@H]3C[C@H]3CCCC3CC3c3nc4ccc(OC)cc4nc3O2)[C@@H]1C(=O)N[C@]1(C(=O)NS(=O)(=O)C2(C)CC2)C[C@H]1C(F)F (some centres unmarked) [Example 36]", "pEC50", 8.04],
  ["COc1ccc2nc3c(nc2c1)O[C@H]1CN(C(=O)[C@H](C(C)(C)C)NC(=O)O[C@@H]2C[C@H]2CCCCC3)[C@H](C(=O)N[C@]2(C(=O)NS(=O)(=O)C3(C)CC3)C[C@H]2CCF)[C@@H]1C [Example 23]", "pEC50", 8.00],
  ["CC[C@@H]1[C@@H]2CN(C(=O)[C@H](C(C)(C)C)NC(=O)O[C@@H]3C[C@H]3CCCCC(F)(F)c3nc4ccccc4nc3O2)[C@@H]1C(=O)N[C@]1(C(=O)NS(=O)(=O)C2CC2)C[C@H]1C(F)F [Example 53]", "pEC50", 8.55]
]}

Hey, can you go through the list below and give me pEC50 for every item?
1. CC[C@@H]1C[C@]1(NC(=O)[C@@H]1[C@H](C)[C@@H]2CN1C(=O)[C@H](C(C)(C)C)NC(=O)O[C@@H]1C[C@H]1CCCCCc1nc3ccc(OC)cc3nc1O2)C(=O)NS(=O)(=O)C1CC1 [Example 20]
2. COc1ccc2nc3c(nc2c1)O[C@H]1CN(C(=O)[C@H](C(C)(C)C)NC(=O)O[C@@H]2CC4CC(C4)[C@H]2CCCCC3)[C@H](C(=O)N[C@]2(C(=O)NS(=O)(=O)C3CC3)C[C@H]2C(F)F)[C@@H]1C [Example 71]
3. CC[C@@H]1[C@@H]2CN(C(=O)[C@H](C(C)(C)C)NC(=O)O[C@@H]3C[C@H]3CCCCCc3nc4ccc(OC)cc4nc3O2)[C@@H]1C(=O)N[C@]1(C(=O)NS(=O)(=O)C2(Cl)CC2)C[C@H]1C(F)F [Example 75]
4. CC[C@@H]1[C@@H]2CN(C(=O)[C@H](C(C)(C)C)NC(=O)O[C@@H]3C[C@H]3CCCCC(F)(F)c3nc4ccc(OC)cc4nc3O2)[C@@H]1C(=O)N[C@]1(C(=O)NS(=O)(=O)C2(C)CC2)C[C@H]1C(F)F [Example 17]

8.23
8.28
8.00
8.54

====

# EXPERIMENTAL_SYSTEM: HCV NS3 protease domain genotype 1b (Hepatitis C virus genotype 1b (isolate Con1), UniProt Q9WMX2, E1202G)
# Sequence (Q9WMX2 1027-1208 E1202G): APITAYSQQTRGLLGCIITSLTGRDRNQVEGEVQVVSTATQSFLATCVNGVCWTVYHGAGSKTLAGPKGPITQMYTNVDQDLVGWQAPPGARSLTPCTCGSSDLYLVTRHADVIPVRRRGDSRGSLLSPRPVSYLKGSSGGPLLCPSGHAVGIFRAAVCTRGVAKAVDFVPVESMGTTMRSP
# ASSAY_TEXT: Ki determination, NS3 protease genotype 1b (fluorogenic depsipeptide substrate)
# SETUP_CONDITIONS: 50 pM enzyme, NS4A peptide
Kindly state Ki for each of the entries shown.
Numbers only, in nM.

Hey, can you go through the list below and give me Ki for every item?
1. COc1ccc2nc3c(nc2c1)O[C@H]1CN(C(=O)[C@H](C(C)(C)C)NC(=O)O[C@@H]2[C@H]4CC[C@H](C4)[C@H]2CCCCC3)[C@H](C(=O)N[C@]2(C(=O)NS(=O)(=O)C3CC3)C[C@H]2C(F)F)[C@@H]1C
2. CC[C@@H]1[C@@H]2CN(C(=O)[C@H](C3CCCC3)NC(=O)O[C@@H]3C[C@H]3CCCCCc3nc4ccc(OC)cc4nc3O2)[C@@H]1C(=O)N[C@]1(C(=O)NS(=O)(=O)C2(C)CC2)C[C@H]1C(F)F

1: 0.05; 2: 0.07

Hey, can you go through the list below and give me Ki for every item?
1. CC[C@@H]1[C@@H]2CN(C(=O)[C@H](C(C)(C)C)NC(=O)O[C@@H]3C[C@H]3CCCCCc3nc4ccc(OCC(F)(F)F)cc4nc3O2)[C@@H]1C(=O)N[C@]1(C(=O)NS(=O)(=O)C2(C)CC2)C[C@H]1C(F)F
2. CCC[C@@H]1[C@@H]2CN(C(=O)[C@H](C(C)(C)C)NC(=O)O[C@@H]3C[C@H]3CCCCC(F)(F)c3nc4ccc(OC)cc4nc3O2)[C@@H]1C(=O)N[C@]1(C(=O)NS(=O)(=O)C2CC2)C[C@H]1C(F)F

0.09
0.04

====

# System: genotype 1b NS3/4a protease inhibitor resistant variant D168A transient HCV replicon in Huh-7-derived cells
# ASSAY_TEXT: Transient-transfected HCV replicon EC50, genotype 1b D168A
# Format: cell-based, hepatitis C virus
# SETUP_CONDITIONS: Hepatitis C virus, 72 h, read-out: EC50 1B D168A, transient-transfected replicon genotype 1b D168A resistant variant, 72 h
pEC50: −log10 of the molar value.
Rule: MET for pEC50 not less than 7, NOT MET for anything less.

Sample answers from the record:
{"columns": ["COMPOUND", "CLASSIFICATION"],
 "data": [
  ["COc1ccc2nc3c(nc2c1)O[C@H]1CN(C(=O)[C@H](C(C)(C)C)NC(=O)O[C@@H]2C[C@H]2CCCCC3)[C@H](C(=O)N[C@]2(C(=O)NS(=O)(=O)C3(C)CC3)C[C@H]2CCF)[C@@H]1C", "NOT MET"],
  ["CC[C@@H]1[C@@H]2CN(C(=O)[C@H](C(C)(C)C)NC(=O)O[C@@H]3C[C@@H]4C[C@@H]4[C@H]3CCCCC(F)(F)c3nc4ccc(OC)cc4nc3O2)[C@@H]1C(=O)N[C@]1(C(=O)NS(=O)(=O)C2(C)CC2)C[C@H]1C(F)F", "MET"],
  ["CC[C@@H]1[C@@H]2CN(C(=O)[C@H](C(C)(C)C)NC(=O)O[C@@H]3C[C@H]3CCCCC(F)(F)c3nc4ccc(OC)cc4nc3O2)[C@@H]1C(=O)NC1(C(=O)NS(=O)(=O)C2(C)CC2)C[C@H]1CC (stereo partly drawn)", "MET"]
]}

// next entry
Reported pEC50 reaches at least 7 for `COc1ccc2nc3c(nc2c1)O[C@H]1CN(C(=O)[C@H](C(C)(C)C)NC(=O)O[C@@H]2C[C@@H]4C[C@@H]4[C@H]2CCCCC3)[C@H](C(=O)N[C@]2(C(=O)NS(=O)(=O)C3CC3)C[C@H]2CC(F)F)[C@@H]1C` ?
MET

====

# EXPERIMENTAL_SYSTEM: HCV NS3 protease domain genotype 1b (Hepatitis C virus genotype 1b (isolate Con1), UniProt Q9WMX2, E1202G)
# ASSAY_TEXT: Ki determination, NS3 protease genotype 1b (fluorogenic depsipeptide substrate)
# SETUP_CONDITIONS: 50 pM enzyme, NS4A peptide
READOUT_KIND: Ki
Provide a numeric answer, followed by its unit.

// known answers, use as guide
{"columns": ["COMPOUND", "READOUT_KIND", "RESULT"],
 "data": [
  ["COc1ccc2nc3c(nc2c1)O[C@H]1CN(C(=O)[C@H](C(C)(C)C)NC(=O)O[C@@H]2C[C@@H]4C[C@@H]4[C@H]2CCCCC3)[C@H](C(=O)NC2(C(=O)NS(=O)(=O)C3CC3)C[C@H]2C(F)F)[C@@H]1C (stereo in doubt)", "Ki", "0.03 nM"],
  ["CC[C@@H]1[C@@H]2CN(C(=O)[C@H](C(C)(C)C)NC(=O)O[C@@H]3C[C@H]3CCCCC(F)(F)c3nc4ccc(OC(F)(F)F)cc4nc3O2)[C@@H]1C(=O)N[C@]1(C(=O)NS(=O)(=O)C2(C)CC2)C[C@H]1C(F)F", "Ki", "0.09 nM"],
  ["C[C@@H]1[C@@H]2CN(C(=O)[C@H](C(C)(C)C)NC(=O)O[C@@H]3C[C@@H]4C[C@@H]4[C@H]3CCCCCc3nc4ccc(Cl)cc4nc3O2)[C@@H]1C(=O)N[C@]1(C(=O)NS(=O)(=O)C2CC2)C[C@H]1C(F)F", "Ki", "0.06 nM"],
  ["CC[C@@H]1[C@@H]2CN(C(=O)[C@H](C(C)(C)C)NC(=O)O[C@@H]3C[C@@H]4C[C@@H]4[C@H]3CCCCC(F)(F)c3nc4ccc(OC)cc4nc3O2)[C@@H]1C(=O)N[C@]1(C(=O)NS(=O)(=O)C2CC2)C[C@H]1C(F)F", "Ki", "0.04 nM"]
]}

Hey, can you go through the list below and give me Ki for every item?
1. COc1ccc2nc3c(nc2c1)O[C@H]1CN(C(=O)[C@H](C(C)(C)C)NC(=O)O[C@@H]2C[C@H]2CCCCC3)[C@H](C(=O)N[C@]2(C(=O)NS(=O)(=O)C3(C)CC3)C[C@H]2C(F)F)[C@@H]1CC(C)C
2. CC[C@@H]1[C@@H]2CN(C(=O)[C@H](C(C)(C)C)NC(=O)O[C@@H]3C[C@@H]4C[C@@H]4[C@H]3CCCCCc3nc4ccc(OC)cc4nc3O2)[C@@H]1C(=O)N[C@]1(C(=O)NS(=O)(=O)C2CC2)C[C@H]1C(F)F
3. COc1ccc2nc3c(nc2c1)O[C@H]1CN(C(=O)[C@H](C(C)(C)C)NC(=O)O[C@@H]2C[C@@H]4C[C@@H]4[C@H]2CCCCC3(F)F)[C@H](C(=O)N[C@]2(C(=O)NS(=O)(=O)C3CC3)C[C@H]2C(F)F)[C@@H]1C
4. COc1ccc2nc3c(nc2c1)O[C@H]1CN(C(=O)[C@H](C2(C)CCCC2)NC(=O)O[C@@H]2C[C@H]2CCCCC3)[C@H](C(=O)N[C@]2(C(=O)NS(=O)(=O)C3(C)CC3)C[C@H]2C(F)F)[C@@H]1C

1. 0.14 nM
2. 0.05 nM
3. 0.04 nM
4. 0.03 nM
